We begin with a simple list: items and their reported log2 fold change.
assayedTarget: YIPF4 (UniProt Q9BSR8)
Sequence (Q9BSR8 whole entry, looked up): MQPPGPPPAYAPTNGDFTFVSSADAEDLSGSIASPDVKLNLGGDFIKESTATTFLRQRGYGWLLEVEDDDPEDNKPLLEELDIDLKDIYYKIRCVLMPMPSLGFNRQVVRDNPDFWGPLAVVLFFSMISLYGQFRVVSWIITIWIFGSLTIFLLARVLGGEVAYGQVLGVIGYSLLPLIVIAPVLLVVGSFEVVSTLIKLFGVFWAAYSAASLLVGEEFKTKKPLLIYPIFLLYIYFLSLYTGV
measurementDescription: log2 fold change, soluble protein after heating vs DMSO (PISA); higher = thermal stabilisation; K562 cells, 10 uM, 30 min; active = over 0.2 and 3.5 SD of the protein, either way, in both replicates (recomputed)
Targets with a hit are over-represented here; the source holds about 7,900 in all. About 0.6% of all pairs of compound and target were hits.

| compound | log2 fold change |
| --- | --- |
| CS(=O)(=O)CCNCc1ccc(-c2ccc3ncnc(Nc4ccc(OCc5cccc(F)c5)c(Cl)c4)c3c2)o1 [lapatinib] | -0.13 |
| CN1CCc2c(c3ccccc3n2Cc2ccc(C(=O)NO)cc2)C1 [Tubastatin A] | -0.028 |
| Cc1cccc(CC(=O)N2CCc3c2ccc(-c2cn(C)c4ncnc(N)c24)c3F)n1 | -0.042 |
| Cc1nc(Nc2n[nH]c3c2CN(C(=O)N[C@H](CN(C)C)c2ccccc2)C3(C)C)c2sccc2n1 | 0.004 |
| COC(=O)[C@H](CCSC)NC(=O)c1ccc(NC[C@@H](N)CS)cc1-c1ccccc1 | 0.088 |
| CN1CCC(CNc2ccc3ncc(-c4cccc(OC(F)(F)F)c4)n3n2)CC1 | 0.101 |
| Cc1cc(SCc2sc(-c3ccc(C(F)(F)F)cc3)nc2C)ccc1OCC(=O)O | -0.04 |
| O=C1NC(=NCc2cccs2)S/C1=C\c1ccc2ncccc2c1 | -0.006 |
| Cc1ncc(-c2ccnc(Nc3ccc(S(C)(=O)=O)cc3)n2)n1C(C)C | -0.005 |
| CC(C)(O)CC(=O)NCCn1ccc2ncnc(Nc3ccc(Oc4cccc(C(F)(F)F)c4)c(Cl)c3)c21 | -0.012 |
| CCn1cc(-c2ccnc3[nH]c(-c4cccc(CN(C)C)c4)cc23)c(-c2ccc(NC(=O)N(C)C)cc2)n1 | 0.037 |
| CNc1nc(-c2ccc3c(N)n[nH]c3c2)cc(N2C[C@@H](C(=O)NC3CCCCC3)CC[C@H]2C)n1 | -0.082 |
| CCCc1cc(C)[nH]c(=O)c1CNC(=O)c1cc(-c2ccnc(N3CCN(C)CC3)c2)cc2c1cnn2C(C)C | -0.036 |

----------
assayedTarget: YY1 (UniProt P25490)
Sequence (P25490 whole entry, looked up): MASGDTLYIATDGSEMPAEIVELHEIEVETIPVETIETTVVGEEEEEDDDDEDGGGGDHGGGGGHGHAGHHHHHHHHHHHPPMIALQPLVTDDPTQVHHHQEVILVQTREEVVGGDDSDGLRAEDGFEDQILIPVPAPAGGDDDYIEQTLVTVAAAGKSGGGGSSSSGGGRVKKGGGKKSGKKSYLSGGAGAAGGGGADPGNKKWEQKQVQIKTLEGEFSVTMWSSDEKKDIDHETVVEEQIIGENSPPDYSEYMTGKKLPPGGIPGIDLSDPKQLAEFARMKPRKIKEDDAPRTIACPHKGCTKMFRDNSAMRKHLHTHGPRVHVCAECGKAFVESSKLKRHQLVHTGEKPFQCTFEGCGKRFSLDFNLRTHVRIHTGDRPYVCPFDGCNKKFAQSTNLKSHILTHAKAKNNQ
measurementDescription: log2 fold change, soluble protein after heating vs DMSO (PISA); higher = thermal stabilisation; K562 cells, 10 uM, 30 min; active = over 0.2 and 3.5 SD of the protein, either way, in both replicates (recomputed)
About 7,900 targets were measured; listed, in parts, are those with a hit and a random draw of the rest. About 0.6% of all pairs of compound and target were hits.
Classes used: active, inactive

| compound | labelClass |
| --- | --- |
| Cc1cccc(-c2[nH]c(C(C)(C)C)nc2-c2ccc3nccnc3c2)n1 | inactive |
| COC(=O)[C@H](CCSC)NC(=O)c1ccc(NC[C@@H](N)CS)cc1-c1ccccc1 | inactive |
| Oc1cc(-c2nc(-c3ccccc3)[nH]c2-c2ccncc2)ccc1Cl | inactive |
| CN1CC[C@H](c2c(O)cc(O)c3c(=O)cc(-c4ccccc4Cl)oc23)[C@H](O)C1 [alvocidib] | inactive |
| COc1cc(C(=O)O)ccc1NC(=O)[C@@H]1N[C@@H](CC(C)(C)C)[C@](C#N)(c2ccc(Cl)cc2F)[C@H]1c1cccc(Cl)c1F [idasanutlin] | inactive |
| NC(=O)Nc1cc(-c2cccc(F)c2)sc1C(=O)N[C@H]1CCCNC1 | inactive |
| Cc1ccc2c(=O)c3ccccc3n(CCCN)c2c1C | active |
| Cc1cccc(CC(=O)N2CCc3c2ccc(-c2cn(C)c4ncnc(N)c24)c3F)n1 | inactive |
| CC(C)c1cnn2c(NCc3ccccc3)cc(NCCCCCCN)nc12 | active |
| Nc1ccccc1NC(=O)c1ccc(CNC(=O)OCc2cccnc2)cc1 [entinostat] | inactive |
| CC(=O)c1cnc2ccc(-c3cc(Cl)c(O)c(Cl)c3)nc2c1N[C@H]1CC[C@H](CN(C)C)CC1 | inactive |
| CCn1c(C(=O)N(C2CC2)C2CC2)cc2c3c(ncn3C)c(Nc3cc(C)n(C)n3)nc21 | inactive |
| Cc1ccc(C(=O)N(CCCN)[C@@H](c2nc3cc(Cl)ccc3c(=O)n2Cc2ccccc2)C(C)C)cc1 [ispinesib] | inactive |
| CC[C@H](C)[C@H](NC(=O)[C@H]([C@@H](C)CC)N(C)C(C)=O)C(=O)N[C@H](C(=O)N[C@@H](CC(C)C)C(=O)[C@@]1(C)CO1)[C@@H](C)O [epoxomicin] | inactive |
| CS(=O)(=O)c1ccc(-c2cnc(N)c(C(=O)Nc3ccccc3)n2)cc1 | inactive |
| CC[C@@H]1C(=O)N(C)c2cnc(Nc3ccc(C(=O)N[C@H]4CC[C@H](N5CCN(CC6CC6)CC5)CC4)cc3OC)nc2N1C(C)C [volasertib] | active |
| CN1CCC(CNc2ccc3ncc(-c4cccc(OC(F)(F)F)c4)n3n2)CC1 | inactive |
| Cc1cn(-c2cc(NC(=O)c3ccc(C)c(Nc4nccc(-c5cccnc5)n4)c3)cc(C(F)(F)F)c2)cn1 [nilotinib] | inactive |
| NC1(Cc2ccc(Cl)cc2)CCN(c2ncnc3[nH]ccc23)CC1 | inactive |
| Cn1cc(-c2ccc3c(c2)CCN3C(=O)Cc2cccc(C(F)(F)F)c2)c2c(N)ncnc21 | inactive |
| C[C@@H](Oc1cc(-c2cnn(C3CCNCC3)c2)cnc1N)c1c(Cl)ccc(F)c1Cl [crizotinib] | inactive |
| Cc1cc(Nc2cc(CN3CCOCC3)c3nc(C)c(Cc4ccc(Cl)cc4F)n3n2)n[nH]1 [gandotinib] | inactive |
| O=C1NC(=O)C(c2cnc3ccccn23)=C1c1cn2c3c(cc(F)cc13)CN(C(=O)N1CCCCC1)CC2 | inactive |
| NC(=O)c1ccc2nc(-c3ccc(Oc4ccc(Cl)cc4)cc3)[nH]c2c1 | inactive |
| C[C@@H]1COCCN1c1cc(C2(S(C)(=O)=O)CC2)nc(-c2cccc3[nH]ccc23)n1 | inactive |
| CN1CCN(c2nc(C3=C(c4c[nH]c5ccccc45)C(=O)NC3=O)c3ccccc3n2)CC1 [sotrastaurin] | inactive |
| Cn1cncc1[C@@](N)(c1ccc(Cl)cc1)c1ccc2c(c1)c(-c1cccc(Cl)c1)cc(=O)n2C [tipifarnib] | inactive |
| COc1cc2ncnc(Nc3ccc(F)c(Cl)c3)c2cc1OCCCN1CCOCC1 [gefitinib] | inactive |

----------
assayedTarget: ZMAT2 (UniProt Q96NC0)
Sequence (Q96NC0 whole entry, looked up): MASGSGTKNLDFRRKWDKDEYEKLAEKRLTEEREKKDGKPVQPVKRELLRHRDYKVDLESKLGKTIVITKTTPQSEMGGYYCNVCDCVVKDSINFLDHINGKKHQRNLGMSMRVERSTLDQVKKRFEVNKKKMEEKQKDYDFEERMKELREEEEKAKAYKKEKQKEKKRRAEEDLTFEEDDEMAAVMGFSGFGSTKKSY
measurementDescription: log2 fold change, soluble protein after heating vs DMSO (PISA); higher = thermal stabilisation; K562 cells, 10 uM, 30 min; active = over 0.2 and 3.5 SD of the protein, either way, in both replicates (recomputed)
Of roughly 7,900 targets only a part is listed; those with a hit were picked by preference. About 0.6% of all pairs of compound and target were hits.

| lineNotation | assayedTarget | log2 fold change |
| --- | --- | --- |
| CCn1cc(-c2ccnc3[nH]c(-c4cccc(CN(C)C)c4)cc23)c(-c2ccc(NC(=O)N(C)C)cc2)n1 | ZMAT2 (UniProt Q96NC0) | 0.022 |
| NCC(=O)Nc1ccc(-n2nc(C(F)(F)F)cc2-c2ccc3c(ccc4ccccc43)c2)cc1 | ZMAT2 (UniProt Q96NC0) | 0.016 |
| CON(C)C(=O)N1N=C(c2cc(F)ccc2F)S[C@@]1(CCCN)c1ccccc1 | ZMAT2 (UniProt Q96NC0) | -0.084 |
| CCCCN(Cc1ccc(C(=O)NO)cc1)C(=O)Nc1ccccc1 | ZMAT2 (UniProt Q96NC0) | -0.011 |
| CS(=O)(=O)CCNCc1ccc(-c2ccc3ncnc(Nc4ccc(OCc5cccc(F)c5)c(Cl)c4)c3c2)o1 | ZMAT2 (UniProt Q96NC0) | 0.016 |
| Cc1ccc(-n2nc(C(C)(C)C)cc2NC(=O)Nc2ccc(OCCN3CCOCC3)c3ccccc23)cc1 | ZMAT2 (UniProt Q96NC0) | -0.024 |
| CC(C)(C)Cn1c(N)nc2ccc(-c3[nH]c(C(C)(C)C)nc3-c3ccc(F)cc3)nc21 | ZMAT2 (UniProt Q96NC0) | -0.024 |
| Cc1cc(Nc2cc(CN3CCOCC3)c3nc(C)c(Cc4ccc(Cl)cc4F)n3n2)n[nH]1 | ZMAT2 (UniProt Q96NC0) | -0.014 |
| CC(C)c1cnn2c(NCc3ccccc3)cc(NCCCCCCN)nc12 | ZMAT2 (UniProt Q96NC0) | 0.138 |
| Cc1nc(Nc2n[nH]c3c2CN(C(=O)N[C@H](CN(C)C)c2ccccc2)C3(C)C)c2sccc2n1 | ZMAT2 (UniProt Q96NC0) | 0.07 |
| Cc1cc(SCc2sc(-c3ccc(C(F)(F)F)cc3)nc2C)ccc1OCC(=O)O | ZMAT2 (UniProt Q96NC0) | -0.048 |
| NC(=O)Nc1cc(-c2cccc(F)c2)sc1C(=O)N[C@H]1CCCNC1 | ZMAT2 (UniProt Q96NC0) | 0.282 |
| CC[C@@H]1C(=O)N(C)c2cnc(Nc3ccc(C(=O)NC4CCN(C)CC4)cc3OC)nc2N1C1CCCC1 | ZMAT2 (UniProt Q96NC0) | 0.017 |
| CN1CCc2c(c3ccccc3n2Cc2ccc(C(=O)NO)cc2)C1 | ZMAT2 (UniProt Q96NC0) | 0.057 |
| Cc1cccc(CC(=O)N2CCc3c2ccc(-c2cn(C)c4ncnc(N)c24)c3F)n1 | ZMAT2 (UniProt Q96NC0) | -0.037 |
| NC(=O)c1ccc2nc(-c3ccc(Oc4ccc(Cl)cc4)cc3)[nH]c2c1 | ZMAT2 (UniProt Q96NC0) | 0.019 |

Values compiled from the supplement of paper PMC10849652.
